Each record here notes measured growth.
- System: HCC-2998 colon
- experimentSummary: NCI-60 one-dose screen, 48 h (100 = growth as untreated, 0 = no growth, -100 = all killed)
- conditions: 10 µM unless noted
This is part of a sample that, as a whole, favours compounds with a hit. Of some 83,000 tested, about 20% had one in any assay.
Numbers only; they are read as %.

[
  {
    "compound": "COc1ccc(C(=O)OC2C(OC3C(O)COC(O[C@H]4C[C@H]5[C@@H]6CC=C7C[C@@H](O)CC[C@]7(C)[C@H]6CC[C@]5(C)[C@H]4[C@H](C)C(=O)CCC(C)C)C3OC(C)=O)OCC(O)C2O)cc1 (stereo partly specified)",
    "outputUnit": "%",
    "quantitativeReadout": 52.9
  }
]

For "O=C(Nc1cccc(C2=NCCN2)c1)c1ccc(N=Nc2ccc(C(=O)Nc3cccc(C4=NCCN4)c3)cc2)cc1" , what is its reported growth?
79.4

Look at this compound and give its reported growth. "CN(C)c1nc(-c2ccco2)n2nc(-c3ccc(Cl)cc3)cc2n1"
86

---

- System: HOP-62 NSCLC
- experimentSummary: NCI-60 one-dose screen, 48 h
- conditions: 10 µM unless noted
Compounds without any hit were thinned out: in the full panel of roughly 83,000, 20% have a hit. Active and inactive are the calls of the source. Rule for the calls: active = growth percent below 10; inactive = the rest.
Please reply with one of these outcomes: yes (1) = active, no (0) = inactive

Would you please look over these solved cases?
[
  {
    "compound": "Cc1c(C(N)=O)sc2ncn(CC(=O)NN=C3CCCCC3)c(=O)c12",
    "assignedClass": "no (0)"
  },
  {
    "compound": "O=C1/C(=C/c2cc(F)cc(F)c2)Cc2cc(F)cc(F)c21",
    "assignedClass": "no (0)"
  },
  {
    "compound": "CCCCCCCCCCCCCCCCCC1=NCCN1CCO",
    "assignedClass": "no (0)"
  }
]

What is the recorded call for this compound in the test? "NNc1ccc(S(N)(=O)=O)cc1"
no (0)

Lab log entry: "N=C(N)c1ccc(-c2ccc(-c3cccs3)s2)cc1F" — outcome as called in the assay?
yes (1)

Hey, what did the test say about "Cc1cc(O)c2cc3c(O)c(O)ccc3cc2c1" ?
no (0)

Look up the recorded call for "Cc1ccc(C)c(NC(=O)c2sc3c(=O)[nH]cnc3c2C)c1" in this test.
no (0)

Would you mind telling me which call this test gave "S=C(S)Oc1cccc2cccnc12" ?
no (0)

---

- System: MOLT-4 leukemia
- experimentSummary: NCI-60 one-dose screen, 48 h (100 = growth as untreated, 0 = no growth, -100 = all killed)
- conditions: 10 µM unless noted
About 83,000 compounds went through this panel and 20% of them were active in at least one assay; those are over-represented in the sample as a whole.
1 if growth is below 30%. -1 if not; exact matches included in -1.

Worked examples follow.
[
  {
    "compound": "CN(C)c1ccc(C2(Cl)c3ccccc3N(C)c3ccccc32)cc1",
    "assignedClass": -1
  },
  {
    "compound": "Cc1cc(-c2ccc(N=Nc3c(S(=O)(=O)O)cc4cc(S(=O)(=O)O)cc(O)c4c3O)c(C)c2)ccc1N=Nc1c(S(=O)(=O)O)cc2cc(S(=O)(=O)O)cc(O)c2c1O",
    "assignedClass": -1
  },
  {
    "compound": "COc1ccc(/C(C)=N/NC(=O)c2ccc(S(C)(=O)=O)cc2)cc1OC",
    "assignedClass": -1
  },
  {
    "compound": "COc1ccc(Nc2nc(N)nc3c(=O)[nH]ccc23)cc1",
    "assignedClass": -1
  },
  {
    "compound": "CC(SC(C)C(=O)N/N=C/c1cccc(Cl)c1)C(=O)N/N=C\\c1cccc(Cl)c1 (stereo not given)",
    "assignedClass": -1
  }
]

Threshold test, growth < 30%: "Cc1ccc(Nc2cc(Cl)c([N+](=O)[O-])cc2[N+](=O)[O-])cc1"
1

Criterion: growth strictly below 30%. Is it met by "CC(=O)Oc1ccccc1C(=O)Nc1ncc([N+](=O)[O-])s1" ?
1

Dear colleague, could you confirm whether growth of CC(C)(C)c1nn(-c2ccccc2)c2c1C(=O)CSC(c1ccccc1Cl)N2 (stereo not given) falls below 30%? Thanks.
1

Please indicate whether the reported growth of "CC(=O)c1ccc(Br)c([N+](=O)[O-])c1" is strictly below 30%.
-1
